Biological target: ABCG2 (Homo sapiens, UniProt Q9UNQ0)
Sequence (Q9UNQ0 1-655): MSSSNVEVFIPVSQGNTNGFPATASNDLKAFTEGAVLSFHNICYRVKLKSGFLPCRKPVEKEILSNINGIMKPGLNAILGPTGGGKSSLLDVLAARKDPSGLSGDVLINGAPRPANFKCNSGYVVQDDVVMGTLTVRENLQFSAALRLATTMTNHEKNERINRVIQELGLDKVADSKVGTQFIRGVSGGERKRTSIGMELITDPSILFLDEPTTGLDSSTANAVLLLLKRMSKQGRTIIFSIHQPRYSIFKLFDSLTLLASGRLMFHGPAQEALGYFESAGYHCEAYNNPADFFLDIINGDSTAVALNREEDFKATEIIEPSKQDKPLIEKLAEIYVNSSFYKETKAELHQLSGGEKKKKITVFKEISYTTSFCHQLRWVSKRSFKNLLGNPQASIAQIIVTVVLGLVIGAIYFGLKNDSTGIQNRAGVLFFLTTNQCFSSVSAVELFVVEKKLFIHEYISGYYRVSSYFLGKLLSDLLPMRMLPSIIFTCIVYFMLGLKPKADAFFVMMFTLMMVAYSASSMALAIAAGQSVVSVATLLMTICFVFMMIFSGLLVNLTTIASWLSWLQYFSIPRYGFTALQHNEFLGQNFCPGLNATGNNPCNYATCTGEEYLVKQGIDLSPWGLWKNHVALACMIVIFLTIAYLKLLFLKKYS
Assay: JC-1 efflux inhibition dose response, flow cytometry, Ig-MXP3 cells
Would you mind telling me the reported IC50 of each entry?
Numbers only; they are read as nM.

Q: Using the record for "O=C(c1ccc(Cl)cc1)N1CCN(c2cc(-c3ccccc3)nc3cc(-c4cccc(Cl)c4)nn23)CC1" , report its IC50.
Result: 2670

Q: Now try "O=C(C1CCCCC1)N1CCN(c2cc(-c3ccccc3)nc3cc(-c4cccc(Cl)c4)nn23)CC1" .
Result: 2670

Q: Now try "Cc1nc2cc(-c3ccccc3)nn2c(N2CCN(C(=O)c3ccoc3)CC2)c1C" .
Result: 2180

Q: Now try "O=C(c1ccoc1)N1CCN(c2cc(-c3ccco3)nc3cc(-c4ccco4)nn23)CC1" .
Result: 2350

Q: Now try "c1ccc(-c2cc3nc(-c4ccco4)cc(N4CCNCC4)n3n2)cc1" .
Result: 5710

Q: Now try "O=C(c1ccccc1)N1CCN(c2cc(-c3ccco3)nc3cc(-c4ccccc4)nn23)CC1" .
Result: 1620

Q: Now try "O=C(c1ccoc1)N1CCN(c2cc(-c3ccccc3)nc3cc(-c4ccccc4)nn23)CC1" .
Result: 1580

Q: Now try "C#Cc1cc(N2CCN(C(=O)c3ccoc3)CC2)n2nc(-c3cccc(Cl)c3)cc2n1" .
Result: 2360

----------
Target: ABCG2 (Homo sapiens)
Assay: JC-1 efflux inhibition dose response, flow cytometry, Ig-MXP3 cells
Protocol: The HyperCyt® high throughput flow cytometry platform (IntelliCyt™, Albuquerque, N. Mex.) was used to sequentially sample cells from 384-well microplates (2 μL/sample) for flow cytometer presentation at a rate of 40 samples per minute.^62-63 Flow cytometric analysis was performed on a CyAn™ flow cytometer (Beckman-Coulter, Fullerton, Calif.). The resulting time-gated data files were analyzed with HyperView® software to determine compound activity in each well. […]
MEASURED_ATTRIBUTE: log10(IC50) (log10 of the value in µM)
Hello, just confirming the data are log10 of IC50 with units of µM.

Q: Using the record for O=C(c1ccoc1)N1CCN(c2cc(-c3ccoc3)nc3cc(-c4ccccc4)nn23)CC1 [Compound 61] , report its log10(IC50).
Result: 0.15

Q: Now try COc1cccc(-c2cc3nc(-c4ccco4)cc(N4CCN(C(C)=O)CC4)n3n2)c1 [Compound 88] .
Result: 0.28

Q: Now try COc1ccccc1-c1cc(N2CCN(C(=O)c3ccoc3)CC2)n2nc(-c3ccccc3)cc2n1 [Compound 44] .
Result: 0.56

Q: Now try O=C(c1ccoc1)N1CCN(c2cc(-c3ccccc3)nc3cc(-c4ccc(Br)cc4)nn23)CC1 [Compound 33] .
Result: -0.12

Q: Now try Cc1ccc(-c2cc(N3CCN(C(=O)c4ccoc4)CC3)n3nc(-c4ccccc4)cc3n2)o1 [Compound 66] .
Result: -0.08

Q: Now try CC(C)(C)c1cc2nc(-c3ccco3)cc(N3CCN(C(=O)c4ccoc4)CC3)n2n1 [Compound 50] .
Result: 0.29

Q: Now try O=C(c1cccc(Cl)c1)N1CCN(c2cc(-c3ccccc3)nc3cc(-c4cccc(Cl)c4)nn23)CC1 [Compound 18] .
Result: 0.47

Q: Now try O=C(c1ccoc1)N1CCCN(c2cc(-c3ccco3)nc3cc(-c4ccccc4)nn23)C1 [Compound 85] .
Result: 0.35

Q: Now try CC(=O)N1CCN(c2cc(-c3ccco3)nc3cc(-c4cccc(Cl)c4)nn23)CC1 [Compound 87] .
Result: -0.25

Q: Now try COc1ccc(-c2cc(N3CCN(C(=O)c4ccoc4)CC3)n3nc(-c4ccccc4)cc3n2)cc1 [Compound 45] .
Result: 0.37

Q: Now try O=C(c1ccccc1)N1CCN(c2cc(-c3ccccc3)nc3cc(-c4cccc(F)c4)nn23)CC1 [Compound 42] .
Result: 0.36

Q: Now try Cc1nc2cc(-c3cccc(Cl)c3)nn2c(N2CCN(C(=O)c3ccco3)CC2)c1C [Compound 9] .
Result: 0.42

Q: Now try O=C(c1ccoc1)N1CCN(c2cc(-c3ccncc3)nc3cc(-c4cccc(Cl)c4)nn23)CC1 [Compound 31] .
Result: 0.16

Q: Now try COc1ccc(-c2cc(N3CCN(C(=O)c4ccoc4)CC3)n3nc(-c4cccc(Cl)c4)cc3n2)cc1 [Compound 29] .
Result: 0.23

Q: Now try O=C(c1ccoc1)N1CCN(c2cc(-c3ccccc3)nc3cc(-c4cccc(Cl)c4)nn23)CC1 [Compound 11] .
Result: 0.08

Q: Now try O=C(c1ccoc1)N1CCN(c2cc(-c3cccc(F)c3)nc3cc(-c4ccccc4)nn23)CC1 [Compound 47] .
Result: 0.23

Q: Now try O=C(c1ccoc1)N1CCN(c2cc(-c3ccco3)nc3cc(-c4cccc(Cl)c4)nn23)CC1 [Compound 53] .
Result: 0.41

Q: Now try O=C(c1ccoc1)N1CCN(c2cc(-c3ccco3)nc3cc(-c4cccs4)nn23)CC1 [Compound 51] .
Result: 0.19

Q: Now try Cc1cc(N2CCN(C(=O)c3ccoc3)CC2)n2nc(-c3ccccc3)cc2n1 [Compound 63] .
Result: 0.86

Q: Now try COc1cccc(-c2cc3nc(-c4ccccc4)cc(N4CCN(C(=O)c5ccoc5)CC4)n3n2)c1 [Compound 35] .
Result: 0.06

Q: Now try COc1ccccc1-c1cc2nc(-c3ccco3)cc(N3CCN(C(=O)c4ccoc4)CC3)n2n1 [Compound 55] .
Result: 0.44

Q: Now try CN(CCN(C)c1cc(-c2ccco2)nc2cc(-c3ccccc3)nn12)C(=O)c1ccoc1 [Compound 80] .
Result: 1.11

Q: Now try O=C(c1ccccc1)N1CCN(c2cc(-c3ccccc3)nc3cc(-c4ccc(F)cc4)nn23)CC1 [Compound 43] .
Result: 0.31

Q: Now try COc1ccccc1-c1cc2nc(-c3ccccc3)cc(N3CCN(C(=O)c4ccoc4)CC3)n2n1 [Compound 34] .
Result: -0.35

Q: Now try O=C(c1ccoc1)N1CCN(c2cc(-c3cccs3)nc3cc(-c4ccccc4)nn23)CC1 [Compound 64] .
Result: 0.21

Q: Now try CNCCCN(C)c1cc(-c2ccco2)nc2cc(-c3ccccc3)nn12 [Compound 79] .
Result: 1.41

Q: Now try COc1cccc(C(=O)N2CCN(c3cc(-c4ccccc4)nc4cc(-c5cccc(Cl)c5)nn34)CC2)c1 [Compound 15] .
Result: 0.65

Q: Now try O=C(Nc1ccccc1)C1CCN(c2cc(-c3ccco3)nc3cc(-c4ccccc4)nn23)CC1 [Compound 84] .
Result: 0.90

Q: Now try CN(C)c1cc(-c2ccco2)nc2cc(-c3ccccc3)nn12 [Compound 82] .
Result: 0.89

Q: Now try O=C(c1ccoc1)N1CCN(c2cc(-c3cccnc3)nc3cc(-c4cccc(Cl)c4)nn23)CC1 [Compound 30] .
Result: -0.57

----------
Target: ABCG2 (Homo sapiens, UniProt Q9UNQ0)
Sequence (Q9UNQ0 1-655): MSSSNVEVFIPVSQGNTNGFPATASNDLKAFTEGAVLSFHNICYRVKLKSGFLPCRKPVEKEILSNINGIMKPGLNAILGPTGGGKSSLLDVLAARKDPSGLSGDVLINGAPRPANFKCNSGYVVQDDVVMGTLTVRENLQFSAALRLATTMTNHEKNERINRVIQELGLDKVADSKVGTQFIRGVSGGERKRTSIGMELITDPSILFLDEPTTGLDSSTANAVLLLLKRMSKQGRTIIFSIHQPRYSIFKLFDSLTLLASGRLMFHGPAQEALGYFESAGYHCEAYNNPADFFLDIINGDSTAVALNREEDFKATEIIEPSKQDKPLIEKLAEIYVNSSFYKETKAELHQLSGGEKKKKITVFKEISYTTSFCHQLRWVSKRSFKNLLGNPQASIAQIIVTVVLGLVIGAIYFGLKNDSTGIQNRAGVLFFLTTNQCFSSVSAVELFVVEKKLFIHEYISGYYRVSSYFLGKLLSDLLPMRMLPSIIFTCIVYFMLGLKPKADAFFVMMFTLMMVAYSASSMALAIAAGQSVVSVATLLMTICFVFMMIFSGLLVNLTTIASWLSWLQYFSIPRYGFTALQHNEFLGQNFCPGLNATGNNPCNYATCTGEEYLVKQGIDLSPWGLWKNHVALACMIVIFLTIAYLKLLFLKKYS
Experiment: JC-1 efflux inhibition dose response, flow cytometry, Ig-MXP3 cells
Conditions: read-out: IC50 ABCG2 (efflux inhibition of JC-1 substrate); Ig-MXP3 cells over-expressing ABCG2; averages of two to four replicates
MEASURED_ATTRIBUTE: pIC50
In plain terms, pIC50 is the concentration in mol/L turned into minus its base-10 logarithm.

Q: Using the record for O=C(c1ccsc1)N1CCN(c2cc(-c3ccco3)nc3cc(-c4ccccc4)nn23)CC1 [Compound 68] , report its pIC50.
Result: 5.86

Q: Now try COc1cccc(-c2cc3nc(-c4ccco4)cc(N4CCN(C(=O)c5ccoc5)CC4)n3n2)c1 [Compound 56] .
Result: 5.65

Q: Now try O=C(c1coc2ccccc12)N1CCN(c2cc(-c3ccco3)nc3cc(-c4ccccc4)nn23)CC1 [Compound 73] .
Result: 5.55

Q: Now try COc1ccccc1-c1cc2nc(-c3ccccc3)cc(N3CCN(C(=O)c4ccco4)CC3)n2n1 [Compound 37] .
Result: 5.99

Q: Now try Cc1occc1C(=O)N1CCN(c2cc(-c3ccco3)nc3cc(-c4ccccc4)nn23)CC1 [Compound 70] .
Result: 5.63

Q: Now try Cc1coc(C)c1C(=O)N1CCN(c2cc(-c3ccco3)nc3cc(-c4ccccc4)nn23)CC1 [Compound 71] .
Result: 5.43
